tested on: Malme-3M; assay: Growth inhibition of human MALME-3M cells by sulforhodamine B assay; type: functional; settings: read-out: pTGI (converted)
Here the recorded TGI is given for each entry.
ENDPOINT_NAME: TGI

1. C/C=C(/C)C(=O)O[C@@H]1CC(C)(C)C[C@H]2C3=CC[C@@H]4[C@@]5(C)CCC(=O)C(C)(C)[C@@H]5CC[C@@]4(C)[C@]3(C)CC[C@@]12C(=O)O: > 100 µM
2. CC1(C)C[C@@H](O)[C@]2(C(=O)O)CC[C@]3(C)C(=CC[C@@H]4[C@@]5(C)C/C(=C\C=C\c6ccccc6)C(=O)C(C)(C)[C@@H]5CC[C@]43C)[C@@H]2C1: 7.24 µM
3. CC(C)=CC(=O)O[C@@H]1CC(C)(C)C[C@H]2C3=CC[C@@H]4[C@@]5(C)CCC(=O)C(C)(C)[C@@H]5CC[C@@]4(C)[C@]3(C)CC[C@@]12C(=O)O: 81.3 µM
4. C/C=C(/C)C(=O)O[C@@H]1CC(C)(C)C[C@H]2C3=CC[C@@H]4[C@@]5(C)CC[C@H](O)C(C)(C)[C@@H]5CC[C@@]4(C)[C@]3(C)CC[C@@]12C(=O)O: 3.72 µM
5. CC(C)=CC(=O)O[C@@H]1CC(C)(C)C[C@H]2C3=CC[C@@H]4[C@@]5(C)CC[C@H](O)C(C)(C)[C@@H]5CC[C@@]4(C)[C@]3(C)CC[C@@]12C(=O)O: 38.9 µM
